Where do these numbers come from? They come from ChEMBL document CHEMBL1145399.

Test system: Oocyte
Assay: Activity at Wistar rat cortex AMPA receptor expressed in Xenopus laevis oocytes assessed as 5-fold increase of (S)-AMPA-induced current
Format: cell-based

| molecule | modifier | Activity (µM) |
| --- | --- | --- |
| CCN1CNS(=O)(=O)c2cc(C(=O)O)ccc21 | > | 100 |
| CCN1CNS(=O)(=O)c2cc(C(=O)OC)ccc21 | > | 100 |
| CCN1CNS(=O)(=O)c2cc(C(F)(F)F)ccc21 | > | 300 |
| CN1CNS(=O)(=O)c2cc([N+](=O)[O-])ccc21 | = | 26 |
| CC1Nc2ccc(Cl)cc2S(=O)(=O)N1 (configuration not stated) | = | 509 |
| CCN1CNS(=O)(=O)c2cc(C(=O)Oc3ccccc3)ccc21 | = | 180 |
| CCN1CNS(=O)(=O)c2cc(N)ccc21 | > | 300 |
| CN1C=NS(=O)(=O)c2cc(Cl)ccc21 | > | 1000 |
| CCN1C=NS(=O)(=O)c2cc(Cl)ccc21 | > | 1000 |
| CN1CN(C)S(=O)(=O)c2cc(Cl)ccc21 | = | 17 |
| CCN1CNS(=O)(=O)c2ccccc21 | = | 38 |
| CCN1CNS(=O)(=O)c2cc(Br)ccc21 | = | 78 |
| CN1CNS(=O)(=O)c2cc(Cl)ccc21 | = | 18 |
| Cc1ccc2c(c1)S(=O)(=O)NCN2C | = | 47 |
| CCN1CNS(=O)(=O)c2cc(NC(C)=O)ccc21 | > | 300 |
| NS(=O)(=O)c1cc2c(cc1Cl)NC(C1CC3C=CC1C3)NS2(=O)=O (configuration not stated) [CYCLOTHIAZIDE] | = | 9.8 |
| CCN1CN(C)S(=O)(=O)c2cc(Cl)ccc21 | = | 64 |
| CN1CNS(=O)(=O)c2cc(N)ccc21 | > | 300 |
| CN1C=NS(=O)(=O)c2ccccc21 | > | 1000 |
| CN1CNS(=O)(=O)c2ccccc21 | = | 46 |
| Cc1ccc2c(c1)S(=O)(=O)N=CN2C | = | 650 |
| CN1CN(C)S(=O)(=O)c2ccccc21 | = | 127 |
| O=S1(=O)N[C@H]2CCCN2c2ccccc21 | = | 78.2 |
| CCN1CNS(=O)(=O)c2cc([N+](=O)[O-])ccc21 | = | 45 |
| CCN1C=NS(=O)(=O)c2cc(C)ccc21 | > | 1000 |
| CCN1CNS(=O)(=O)c2cc(OC)ccc21 | = | 190 |
| CCN1CNS(=O)(=O)c2cc(C)ccc21 | = | 95 |
